Where do the numbers come from? From ChEMBL document CHEMBL2010648.

# Organism: Danio rerio
# assay.name: Antiinflammatory activity in transgenic zebrafish larvae harboring Fli-1 gene assessed as LPS-stimulated leukocyte migration to injury zone of tail transected larvae at 3 uM after 20 to 22 hrs by microscopy
# Assay type: functional
Label Fulfilled when Ratio is strictly below 0.8; at or above that, label Not fulfilled.

These recorded examples may help you get a feel for the data.
>>> df
                                   compound    class_label
0  CN(C)CCCOc1nn(Cc2ccccc2F)c2ccc([N+](=O)[O-])cc12      Fulfilled
1               O=c1c2cccnc2n2n1Cc1ccccc1C2  Not fulfilled
2  CCOCc1ccccc1CCN1CC(=O)Nc2cc([N+](=O)[O-])ccc21      Fulfilled
3  CCCCCn1c2ccc([N+](=O)[O-])cc2c(=O)n1Cc1ccccc1      Fulfilled
4  O=c1c2cc([N+](=O)[O-])ccc2n(Cc2ccccc2)n1Cc1ccccc1      Fulfilled

is_below(Ratio, 0.8) for COc1ccc2c(c1)c(CC(=O)O)c(C)n2C(=O)c1ccc(Cl)cc1 [INDOMETHACIN] ?
Fulfilled

# check: Ratio < 0.8 for `O=[N+]([O-])c1ccc2[nH]nc(OCc3ccccc3Cl)c2c1`
Fulfilled

Please indicate whether the reported Ratio of `O=[N+]([O-])c1ccc2c(c1)c(OCc1ccccc1)nn2Cc1ccccc1` is strictly below 0.8.
Fulfilled

Lab log: compare recorded Ratio with 0.8; is it strictly lower for `CCCn1c2ccc([N+](=O)[O-])cc2c(=O)n1Cc1ccccc1` ?
Not fulfilled

Determine if `COc1nn(Cc2ccccc2-c2ccccc2Cn2nc(OC)c3cc([N+](=O)[O-])ccc32)c2ccc([N+](=O)[O-])cc12` shows Ratio strictly lower than 0.8.
Not fulfilled

Dear colleague, could you confirm whether Ratio of `O=c1c2cc([N+](=O)[O-])ccc2n2n1Cc1ccccc1C2` falls below 0.8? Thanks.
Fulfilled

Please let me know if `O=c1[nH]n(Cc2ccccc2OCc2ccccc2)c2ccc([N+](=O)[O-])cc12` shows Ratio below 0.8.
Fulfilled

Find out if reported Ratio for `COc1nn(Cc2ccccc2F)c2ccc([N+](=O)[O-])cc12` is less than 0.8
Not fulfilled

Does O=C1Nc2cc([N+](=O)[O-])ccc2N2Cc3ccccc3CC12 (stereo not given) have Ratio strictly under 0.8?
Fulfilled
